The reader will find reported pEC50 values listed item by item below.
- Tested on: MT4
- measurement_protocol: Tested for 50% effective concentration based on the inhibition of HIV-I induced cytopathic effect in MT-4 cells
- Type: functional, cell-based
- run_parameters: Homo sapiens
pEC50: −log10 of the molar value.

# compound_smiles, pEC50
records = [
    ("Cc1cn([C@H]2C[C@H](N=[N+]=[N-])[C@@H](CO)O2)c(=O)[nH]c1=O", 8.40),
    ("CCCN(C)C(=O)Oc1no[n+]([O-])c1-c1c(Cl)cccc1Cl", 6.92),
    ("CCCN(C)C(=O)Oc1no[n+]([O-])c1-c1ccccc1", 4.70),
    ("CCCN(C)C(=O)Oc1nonc1-c1ccccc1", 5.70),
    ("CN(C)C(=O)Oc1nsnc1-c1ccccc1", 5.25),
]
